ASSAY_METHOD_TEXT: chemical genetic growth profiling, strain panel (AID 1159580);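 also: tested at 20 µM; growth read once vehicle control cultures reached saturation at 30 °C; 1 = growth at the plate median or of vehicle wells; lower values mean less growth of the strain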
REPORTED_CONDITIONS: S. cerevisiae deletion strains, growth OD, locus YCR088W, strain abp1, active compounds read low
In all, about 5,500 compounds went through this assay and about 2,000 (36%) were called active. Roughly 18% stayed inconclusive and do not appear here. The list shows a part of the results.
MEASUREMENT_TYPE: normalized growth
Please state the value as a number alone, without comment.

In the examples that follow, each entry is paired with its recorded normalized growth.
NC(=O)N/N=C\c1ccc([N+](=O)[O-])o1 ... 0.972
CCOC(=O)C1=C[C@]2(CC)CCCN3CCc4c(n1c1ccccc41)[C@@H]32 ... 1.02
O=C1CN(/N=C\c2ccc([N+](=O)[O-])o2)C(=O)N1 ... 0.966
CC1(C)O[C@@H]2CC3C4CCC5=CC(=O)C=C[C@]5(C)C4[C@@H](O)C[C@]3(C)[C@]2(C(=O)CO)O1 (stereo not given in full) ... 0.993

Q: Please give measured normalized growth of the following entry: CC[C@]12CCCN3CCc4c(n(c5ccccc45)[C@](O)(C(=O)OC)C1)[C@@H]32
Result: 0.981
